molecular target: EP4 (Homo sapiens); construct: also expresses a promiscuous G protein and a clytin variant; assay: EP4 Ca2+-flux assay (functional calcium flux assay, stably transfected HEK293 cells); details: HEK293 cells stably transfected with EP4; ligand PGE2 10 nM; luminescence readout
Sequence (P35408 whole entry): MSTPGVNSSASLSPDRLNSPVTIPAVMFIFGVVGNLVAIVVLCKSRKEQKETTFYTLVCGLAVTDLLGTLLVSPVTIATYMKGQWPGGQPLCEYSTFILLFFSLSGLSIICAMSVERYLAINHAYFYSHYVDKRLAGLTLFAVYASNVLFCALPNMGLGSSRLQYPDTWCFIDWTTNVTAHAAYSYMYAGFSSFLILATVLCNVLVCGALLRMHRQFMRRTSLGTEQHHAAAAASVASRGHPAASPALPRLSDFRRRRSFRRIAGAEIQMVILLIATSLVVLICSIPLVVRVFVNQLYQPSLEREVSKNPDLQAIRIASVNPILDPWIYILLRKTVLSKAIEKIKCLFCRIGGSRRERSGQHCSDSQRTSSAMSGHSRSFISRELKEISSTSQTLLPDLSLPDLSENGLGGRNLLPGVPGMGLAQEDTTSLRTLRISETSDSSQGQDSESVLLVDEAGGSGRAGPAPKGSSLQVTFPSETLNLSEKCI
pIC50: −log10 of the molar value.
Would you mind labelling by pIC50? At or over 9 is YES, under is NO.

compound: O=C(O)C[C@]12C[C@](NC(=O)c3cc(F)cc4ccn(Cc5ccc(C(F)(F)F)cc5)c34)(C1)C2 [Example 33]
group: YES
--
compound: O=C(NC1CC2(C1)CC(C(=O)O)C2)c1cccc2ccn(Cc3ccc(C(F)F)cc3)c12 (racemic) [Example 25]
group: YES
--
compound: O=C(NC1CC2(C1)CC(C(=O)O)C2)c1ccnc2ccn(Cc3ccc(C(F)(F)F)cc3)c12 (racemic) [Example 9]
group: NO
--
compound: O=C(NC1CC2(C1)CC(C(=O)O)C2)c1nccc2ccn(Cc3ccc(C(F)(F)F)cc3)c12 (racemic) [Example 11]
group: NO
--
compound: O=C(O)CC12CC(NC(=O)c3ccnc4ccn(Cc5ccc(C(F)(F)F)cc5)c34)(C1)C2 [Example 3]
group: NO
--
compound: O=C(O)CC12CC(NC(=O)c3cccc4cnn(Cc5ccc(C(F)(F)F)cc5)c34)(C1)C2 [Example 6]
group: NO

Query :: Exam item: decide whether the reported pIC50 for O=C(O)C[C@]12C[C@](NC(=O)c3cccc4cnn(Cc5ccc(-c6ccccc6)cc5)c34)(C1)C2 [Example 36] is at least 9.
Result :: YES

Query :: Exam item: decide whether the reported pIC50 for O=C(O)C[C@]12C[C@](NC(=O)c3cccc4ccn(Cc5ccc(-c6ccccc6)cc5)c34)(C1)C2 [Example 34] is at least 9.
Result :: YES

Query :: Exam item: decide whether the reported pIC50 for O=C(NC1CC2(C1)CC(C(=O)O)C2)c1cccc2cnn(Cc3ccc(C(F)(F)F)cc3)c12 (racemic) [Example 12] is at least 9.
Result :: NO

Query :: Exam item: decide whether the reported pIC50 for CC1(NC(=O)c2cccc3ccn(Cc4ccc(C(F)(F)F)cc4)c23)CC(CCC(=O)O)C1 (stereo not drawn) [Example 15] is at least 9.
Result :: NO

Query :: Exam item: decide whether the reported pIC50 for O=C(NCC12CC(NC(=O)c3cccc4ccn(Cc5ccc(C(F)(F)F)cc5)c34)(C1)C2)NS(=O)(=O)c1ccccc1 [Example 17] is at least 9.
Result :: NO
